biological target: full-length human PRMT1 isoform 1 (GST-tagged) (Homo sapiens, UniProt Q99873); experiment: PRMT1 Biochemical Assay (3H-SAM Flashplate, peptide substrate); conditions: single experiment or average of multiple experiments
Sequence (Q99873 with tags, fused parts or gaps): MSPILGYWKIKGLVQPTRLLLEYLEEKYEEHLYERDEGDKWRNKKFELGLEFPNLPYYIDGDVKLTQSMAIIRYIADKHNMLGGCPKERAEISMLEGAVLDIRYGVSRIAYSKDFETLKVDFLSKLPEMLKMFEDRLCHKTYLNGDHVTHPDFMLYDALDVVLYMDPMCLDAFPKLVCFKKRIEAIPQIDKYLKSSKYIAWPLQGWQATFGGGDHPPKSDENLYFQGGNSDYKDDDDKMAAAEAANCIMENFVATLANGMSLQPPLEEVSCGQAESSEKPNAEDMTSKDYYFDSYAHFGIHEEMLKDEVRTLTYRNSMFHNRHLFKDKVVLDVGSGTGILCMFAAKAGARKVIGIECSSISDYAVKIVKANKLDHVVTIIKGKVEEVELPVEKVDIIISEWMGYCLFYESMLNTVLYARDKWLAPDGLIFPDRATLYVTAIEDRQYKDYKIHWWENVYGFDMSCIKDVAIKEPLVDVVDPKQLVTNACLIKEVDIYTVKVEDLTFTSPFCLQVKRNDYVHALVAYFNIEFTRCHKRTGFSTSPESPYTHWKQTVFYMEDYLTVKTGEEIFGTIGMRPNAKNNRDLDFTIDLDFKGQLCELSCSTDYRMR
reported_metric: pIC50
Numbers only, as −log10 of the molar value.

// each molecule listed below needs its pIC50
1. CNCCN(C)Cc1c[nH]nc1C1CCC2(CCCCO2)CC1 (stereo not shown) [Compound 137]
2. CNCCN(C)Cc1c[nH]nc1C1CCC2(CC1)CCN(CC(C)C)C2=O (stereo not shown) [Compound 164]
3. CN(CCN)Cc1c[nH]nc1C1CCC2(CCCC2)CC1 [Compound 45]
4. CNCCN(C)Cc1c[nH]nc1[C@H]1CC[C@@]2(CCN(Cc3ccc(OCCOC)cc3)C2=O)CC1 [Compound 120]
5. CC1CCC(c2n[nH]cc2CN(C)CCN)CC1 (stereo not shown) [Compound 37]
6. CNCCN(C)Cc1c[nH]nc1C1CCC2(CC1)C(=O)N(C)C(=O)N2C (stereo not shown) [Compound 171]
7. CNCCN(C)Cc1c[nH]nc1C1CCC2(CC1)CC(=O)N(C)C2 (stereo not shown) [Compound 157]

1: 8.14; 2: 7.71; 3: 8.55; 4: 8.00; 5: 8.00; 6: 7.83; 7: 7.73
